System: Cryptococcus neoformans
ASSAY INFO: Antifungal activity against Cryptococcus neoformans ATCC 90113 after 72 hrs by CLSI method
Assay type: functional, organism-based
CONDITION PARAMETERS: ATCC 90113, 72 h
PROPERTY LABEL: IC50

Known IC50 results, listed for orientation:
GIVEN SMILES: CCCCCC#CCC#CCC#CCC#CCCCC(=O)O
IC50: > 169 µM
--
GIVEN SMILES: CCCCCCCCCC#CCCCCC(=O)O
IC50: 52.4 µM

Here is another compound to look at.
Record CC[C@H](C)C[C@H](C)CCCCCCCCC(=O)N[C@H]1C[C@@H](O)[C@@H](NCCN)NC(=O)[C@@H]2[C@@H](O)CCN2C(=O)[C@H]([C@H](O)CCN)NC(=O)[C@H]([C@H](O)[C@@H](O)c2ccc(O)cc2)NC(=O)[C@@H]2C[C@@H](O)CN2C(=O)[C@H]([C@@H](C)O)NC1=O has Cryptococcus neoformans IC50 equal to 0.4 µM

* * *

Test system: Trichophyton mentagrophytes
ASSAY INFO: Antifungal activity against Trichophyton mentagrophytes ATCC 9533 by CLSI method
Assay type: functional, organism-based
PROPERTY LABEL: MFC

Known MFC results, listed for orientation:
GIVEN SMILES: C[C@@H]1[C@H](O)[C@@H](C)/C=C/C=C/C=C/C=C/C=C/C=C/C=C/[C@H](O[C@@H]2O[C@H](C)[C@@H](O)[C@H](N)[C@@H]2O)C[C@@H]2O[C@](O)(C[C@@H](O)C[C@@H](O)[C@H](O)CC[C@@H](O)C[C@@H](O)CC(=O)O[C@H]1C)C[C@H](O)[C@H]2C(=O)O
STUDY SYSTEM: Trichophyton mentagrophytes
PROPERTY LABEL: MFC
OBS VALUE: 2.7 µM

GIVEN SMILES: CCCCCCCCCC#CCCCCC(=O)O
STUDY SYSTEM: Trichophyton mentagrophytes
PROPERTY LABEL: MFC
OBS VALUE: 6.2 µM

GIVEN SMILES: CCCCCCCCCCCC#CCCCCC(=O)O
STUDY SYSTEM: Trichophyton mentagrophytes
PROPERTY LABEL: MFC
OBS VALUE: 2.8 µM

GIVEN SMILES: CN(C/C=C/C#CC(C)(C)C)Cc1cccc2ccccc12
STUDY SYSTEM: Trichophyton mentagrophytes
PROPERTY LABEL: MFC
OBS VALUE: 0.27 µM

GIVEN SMILES: CCCCCCCCCCC#CCCCCC(=O)O
STUDY SYSTEM: Trichophyton mentagrophytes
PROPERTY LABEL: MFC
OBS VALUE: 11.7 µM

Here is another compound to look at.
Reported MFC of CCCCCCCCCCCCC#CCCCCC(=O)O : 2.7 µM

* * *

System: Candida albicans
ASSAY INFO: Antifungal activity against Candida albicans ATCC 200955 after 48 hrs by CLSI method
Assay type: functional, organism-based
CONDITION PARAMETERS: ATCC 200955, 48 h
pIC50: −log10 of the molar value.
Would you mind labelling by pIC50? At or over 6 is t, under is f.

# check: pIC50 of C[C@@H]1[C@H](O)[C@@H](C)/C=C/C=C/C=C/C=C/C=C/C=C/C=C/[C@H](O[C@@H]2O[C@H](C)[C@@H](O)[C@H](N)[C@@H]2O)C[C@@H]2O[C@](O)(C[C@@H](O)C[C@@H](O)[C@H](O)CC[C@@H](O)C[C@@H](O)CC(=O)O[C@H]1C)C[C@H](O)[C@H]2C(=O)O [AMPHOTERICIN B] is greater than or equal to 6
t

# check: pIC50 of CC[C@H](C)C[C@H](C)CCCCCCCCC(=O)N[C@H]1C[C@@H](O)[C@@H](NCCN)NC(=O)[C@@H]2[C@@H](O)CCN2C(=O)[C@H]([C@H](O)CCN)NC(=O)[C@H]([C@H](O)[C@@H](O)c2ccc(O)cc2)NC(=O)[C@@H]2C[C@@H](O)CN2C(=O)[C@H]([C@@H](C)O)NC1=O [CASPOFUNGIN] is greater than or equal to 6
t

# check: pIC50 of OC(Cn1cncn1)(Cn1cncn1)c1ccc(F)cc1F [FLUCONAZOLE] is greater than or equal to 6
t

# check: pIC50 of CN(C/C=C/C#CC(C)(C)C)Cc1cccc2ccccc12 [TERBINAFINE] is greater than or equal to 6
f

# check: pIC50 of CCCCCC#CCC#CCC#CCC#CCCCC(=O)O is greater than or equal to 6
f

# check: pIC50 of CCCCCCCCCCCCCC#CCCCCC(=O)O [6-ICOSYNOIC ACID] is greater than or equal to 6
f

# check: pIC50 of CCCCCCCCCC#CCCCCC(=O)O is greater than or equal to 6
f

# check: pIC50 of CCCCCCCCCCC#CCCCCC(=O)O is greater than or equal to 6
f
